assayedTarget: hABHD12 (Homo sapiens)
Construct: expressed in transfected cells; host or cells: HEK293 (transient)
Sequence (Q8N2K0 whole entry): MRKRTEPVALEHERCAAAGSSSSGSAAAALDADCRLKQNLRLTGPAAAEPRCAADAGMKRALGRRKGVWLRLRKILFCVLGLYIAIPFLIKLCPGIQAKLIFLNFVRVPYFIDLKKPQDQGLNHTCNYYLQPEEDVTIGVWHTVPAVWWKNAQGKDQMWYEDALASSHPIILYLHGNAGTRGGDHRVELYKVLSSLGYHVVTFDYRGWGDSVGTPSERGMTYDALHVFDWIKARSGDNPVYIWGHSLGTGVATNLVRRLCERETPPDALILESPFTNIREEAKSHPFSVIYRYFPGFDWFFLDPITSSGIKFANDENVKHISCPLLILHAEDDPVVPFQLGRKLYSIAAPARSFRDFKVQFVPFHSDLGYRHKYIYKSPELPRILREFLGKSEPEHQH
protocolDescription: Fluorescent glycerol assay of 1-AG hydrolysis in hABHD12-HEK293 lysates
Format: biochemical
setupConditions: hABHD12-HEK293 lysates, 10 µM; NI = no inhibition; read-out: Remaining activity at 10 µM % ± s.e.m.
valueKind: remaining activity at 10 µM

Solved cases (5 shown):
- compound: "CC1(C)CC[C@]2(C(=O)O)CC[C@]3(C)C(=CC[C@@H]4[C@@]5(C)CC[C@H](O)C(C)(C)[C@@H]5CC[C@]43C)[C@@H]2C1 [Compound 7, Oleanolic acid, reference compound]"
  remaining activity at 10 µM: "~20%"
- compound: "COC(=O)[C@]12CCC(C)(C)C[C@H]1[C@H]1C(=O)C=C3[C@@]4(C)C=C(C#N)C(=O)C(C)(C)[C@@H]4CC[C@@]3(C)[C@]1(C)CC2 [Compound 13, CDDO methyl ester, reference compound]"
  remaining activity at 10 µM: "> 100%"
- compound: "C=C(C)[C@@H]1CC[C@]2(COC3CCCCO3)CC[C@]3(C)[C@H](CC[C@@H]4[C@@]5(C)CC[C@H](O)C(C)(C)[C@@H]5CC[C@]43C)[C@@H]12 (stereo partly shown)"
  remaining activity at 10 µM: "> 100%"
- compound: "C=C(C)[C@@H]1CC[C@]2(CO)CC[C@]3(C)[C@H](CC[C@@H]4[C@@]5(C)CC[C@H](OC(C)=O)C(C)(C)[C@@H]5CC[C@]43C)[C@@H]12"
  remaining activity at 10 µM: "> 100%"
- compound: "C[C@H]1[C@H](C)CC[C@]2(C)CC[C@]3(C)C(=CC[C@@H]4[C@@]5(C)CC[C@H](O)C(C)(C)[C@@H]5CC[C@]43C)[C@H]12 [Compound 6, α-Amyrin, reference compound]"
  remaining activity at 10 µM: "> 100%"

Exam item: For the compound CC1(C)CC[C@]23CC[C@]4(C)C(CC[C@@H]5[C@@]6(C)Cc7c([nH]c8ccc(F)cc78)C(C)(C)[C@@H]6CC[C@]54C)[C@H]2[C@H]1OC3 (stereo partly shown) , report remaining activity at 10 µM.
Marked response: > 100%

Exam item: For C[C@H]1[C@H](C)CC[C@]2(C(=O)O)CC[C@]3(C)C(=CC[C@@H]4[C@@]5(C)C[C@@H](O)[C@H](O)[C@@](C)(CO)[C@@H]5CC[C@]43C)[C@H]12 [Compound 5, Asiatic acid, reference compound] , write its remaining activity at 10 µM.
Marked response: > 100%

Exam item: Note remaining activity at 10 µM for the compound shown: C=C(C)[C@@H]1CC[C@]2(CO)CC[C@]3(C)[C@H](CC[C@@H]4[C@@]5(C)CC[C@H](O)C(C)(C)[C@@H]5CC[C@]43C)[C@@H]12 [Compound 2, Betulin, reference compound]
Marked response: ~75%

Exam item: Fill in remaining activity at 10 µM for record C[C@H]1[C@H](C)CC[C@]2(C(=O)O)CC[C@]3(C)C(=CC[C@@H]4[C@@]5(C)CC[C@H](O)C(C)(C)[C@@H]5CC[C@]43C)[C@H]12 [Compound 4, Ursolic acid, reference compound]
Marked response: ~30%

Exam item: Assign remaining activity at 10 µM to the following record: CC1(C)CC[C@]2(C)CC[C@]3(C)C(=CC[C@@H]4[C@@]5(C)CC[C@H](O)C(C)(C)[C@@H]5CC[C@]43C)[C@@H]2C1 [Compound 10, β-Amyrin, reference compound]
Marked response: > 100%

Just for reference, paper PMC4045134 is where these values come from.
